target: SpLsb4; assay: SPOT peptide array binding signal intensity (averaged, normalized) (arbitrary units (background-subtracted, floor 0; scale differs between SH3 domains)); higher = stronger binding of the SH3 domain to the peptide
// values below are reported SPOT peptide array binding signal intensity
Number, no unit, nothing else.

INSERT INTO results (binder, observed) VALUES
  ('MKRSRPSRSIPYTTP', 580);

Query binder follows.
So what's the measured SPOT peptide array binding signal intensity for this one? YRRKSIPFAPHQITA
48

FYI, the data here is from the supplement of paper PMC4466140.
